- target: murine SR-BI (Mus musculus, UniProt Q61009)
- Construct: expressed in transfected cells; host or cells: ldlA[mSR-BI]; (CHO ldlA7 derivative lacking the LDL receptor)
- Sequence (Q61009 whole entry): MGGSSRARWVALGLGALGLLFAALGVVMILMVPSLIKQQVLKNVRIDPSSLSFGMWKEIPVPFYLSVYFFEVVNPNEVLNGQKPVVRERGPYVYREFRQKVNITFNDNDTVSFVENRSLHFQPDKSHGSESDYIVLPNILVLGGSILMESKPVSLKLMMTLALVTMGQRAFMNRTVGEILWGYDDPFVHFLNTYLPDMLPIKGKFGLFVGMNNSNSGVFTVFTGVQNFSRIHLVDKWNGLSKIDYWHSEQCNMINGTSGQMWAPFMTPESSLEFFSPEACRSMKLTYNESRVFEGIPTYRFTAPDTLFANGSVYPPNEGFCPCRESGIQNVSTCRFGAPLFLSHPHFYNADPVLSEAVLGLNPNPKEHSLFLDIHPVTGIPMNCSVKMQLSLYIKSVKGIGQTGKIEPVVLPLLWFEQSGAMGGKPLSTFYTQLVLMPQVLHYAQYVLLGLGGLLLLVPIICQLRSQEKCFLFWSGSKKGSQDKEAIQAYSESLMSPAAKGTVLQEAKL
- measurement.protocol: DiI-HDL uptake assay (primary assay)
- Type: cell-based
- condition.description: range; read-out: range of IC50 for HDL-mediated lipid uptake
pIC50: −log10 of the molar value.

# compound.string, target, pIC50
records = [
    ("CCC(=O)N1CCc2cc(-c3csc(NC(=O)c4ccco4)n3)ccc21", "murine SR-BI (Mus musculus, UniProt Q61009)", "8.22 to 9.03"),
]
